Would you kindly list IC50 for each of these compounds?
# MEASURED ON: human KHK-C (Homo sapiens (Human), UniProt P50053)
# Sequence (P50053 whole entry): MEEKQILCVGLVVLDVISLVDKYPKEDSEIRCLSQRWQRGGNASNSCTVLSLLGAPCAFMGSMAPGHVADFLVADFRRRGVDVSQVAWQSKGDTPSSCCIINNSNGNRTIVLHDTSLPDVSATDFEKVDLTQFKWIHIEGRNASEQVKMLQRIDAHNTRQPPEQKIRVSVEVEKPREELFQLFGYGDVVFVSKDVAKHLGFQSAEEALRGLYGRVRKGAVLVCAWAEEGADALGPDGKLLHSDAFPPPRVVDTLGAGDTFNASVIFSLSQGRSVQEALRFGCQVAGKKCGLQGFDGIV
# EXPERIMENT NOTES: KHK Biochemical Assay (IC50), ADP-Glo, KHK-C
# CONDITION INFO: average of at least two separate assays

input: Could you share which IC50 value was measured for N#CC1CN(c2nc(-c3ccc(C(N)=O)cc3)c3c(n2)C(F)(F)CC3)C1 ?
output: > 5000 nM

input: Could you share which IC50 value was measured for C[C@H]1[C@H](O)CN1c1nc(-c2ccc3c(c2)C(C)(C)C[C@@H]3NS(C)(=O)=O)c2c(n1)C(F)(F)CC2 (single isomer, unassigned) ?
output: 0.5 nM

input: Could you share which IC50 value was measured for CC12CCC(CC1)N2c1nc2c(c(-c3ccc(C(N)=O)cc3)n1)CCC2 ?
output: > 5000 nM

input: Could you share which IC50 value was measured for CC(C)C[C@H]1C(F)CN1c1nc2c(c(-c3ccc(C(N)=O)cc3)n1)CCC2 (stereo partly shown) ?
output: > 5000 nM

input: Could you share which IC50 value was measured for C[C@H]1[C@H](O)CN1c1nc(-c2ccc3c(c2)CC[C@@H]3NS(C)(=O)=O)c2c(n1)C(F)(F)CC2 ?
output: 0.9 nM

input: Could you share which IC50 value was measured for COc1ccc(-c2nc(N3C[C@@H](O)[C@@H]3C)nc3c2CCC3(F)F)cc1[S@@](=N)(=O)C1CC1 (single isomer, unassigned) ?
output: 1 nM

input: Could you share which IC50 value was measured for C[C@@H]1CCCN1c1nc2c(c(-c3ccc(C(N)=O)cc3)n1)CCC2 ?
output: > 5000 nM

---

Would you kindly list EC50 for each of these molecules?
# MEASURED ON: KHK-C expressed in NRK-52E cells (Homo sapiens (Human))
# EXPERIMENT NOTES: KHK-C Cell-based Assay (EC50), NRK CTG, fructose-mediated ATP-depletion
# CONDITION INFO: read-out: NRK CTG EC50; NRK-52E cells, Cell-Titer Glo, 25 mM fructose, 48 hours
Give the quantity in µM, number only.

input: Could you share which EC50 value was measured for C[C@H]1[C@H](F)CN1c1nc(-c2ccc([C@]3(N)C[S@@](=N)(=O)C3)cc2)c2c(n1)C(F)(F)CC2 [Example 797] ?
output: 0.0164

input: Could you share which EC50 value was measured for C[C@H]1[C@H](O)CN1c1nc(-c2ccc3c(c2)[S@@](=N)(=O)CCO3)c2c(n1)C(F)(F)CC2 (single isomer, unassigned) [Example 821] ?
output: 0.0422

input: Could you share which EC50 value was measured for C[C@H]1[C@H](O)CN1c1nc(-c2cnc3c(c2)OC[C@@H]3NS(C)(=O)=O)c2c(n1)C(F)(F)CC2 (single isomer, unassigned) [Example 823] ?
output: 0.0563

input: Could you share which EC50 value was measured for C[C@H]1[C@H](O)CN1c1nc(-c2ccc3c(c2)[S@](=N)(=O)CCO3)c2c(n1)C(F)(F)CC2 (single isomer, unassigned) [Example 820] ?
output: 0.0265

---

# MEASURED ON: UniProtKB P50053
# EXPERIMENT NOTES: KHK Biochemical Assay (IC50), ADP-Glo, KHK-C
# CONDITION INFO: average of at least two separate assays
RECORDED METRIC: IC50 (nM)
Give the quantity in nM, number only.

input: Could you share which IC50 value was measured for C[C@H]1[C@H](O)CN1c1nc(-c2ccc3c(c2)CCCCC3NS(C)(=O)=O)c2c(n1)C(F)(F)CC2 (stereo partly shown) ?
output: 33.6

input: Could you share which IC50 value was measured for O=S1(=O)CCNCc2ccc(-c3nc(N4CC[C@@H]4CF)nc4c3CCC4(F)F)cc21 ?
output: 1.2

input: Could you share which IC50 value was measured for NC1(c2ccc(-c3nc(N4CC[C@@H]4C(F)(F)F)nc4c3CCC4(F)F)cc2)CCOC1 (stereo partly shown) ?
output: 0.4

input: Could you share which IC50 value was measured for NC1(c2ccc(-c3nc(N4CCC4C(F)(F)F)nc4c3CCC4(F)F)cc2)COC1 (stereo not shown) ?
output: 0.9

---

Would you kindly list EC50 for each of these compounds?
# MEASURED ON: KHK-C expressed in NRK-52E cells (Homo sapiens (Human), UniProt P50053)
# EXPERIMENT NOTES: KHK-C Cell-based Assay (EC50), NRK CTG, fructose-mediated ATP-depletion
Give the quantity in nM, number only.

input: Could you share which EC50 value was measured for C[C@H]1CCN1c1nc2c(c(-c3ccc4c(c3)NCCNC4=O)n1)CCC2 ?
output: 33.1

input: Could you share which EC50 value was measured for C[C@H]1CCN1c1nc2c(c(-c3cc4cc(C(=O)O)ccc4[nH]3)n1)CCC2 ?
output: 4000

input: Could you share which EC50 value was measured for C[C@H]1CCN1c1nc2c(c(-c3ccc(C4COCCN4)cc3)n1)CCC2 (some centres unmarked) ?
output: 37

input: Could you share which EC50 value was measured for C[C@H]1[C@H](O)CN1c1nc(-c2ccc3c(c2)CNCC3)c2c(n1)C(F)(F)CC2 ?
output: 32.5

input: Could you share which EC50 value was measured for C[C@H]1CCN1c1nc2c(c(-c3cccc(CN4CCCC4)c3)n1)CCC2 ?
output: 35.1

input: Could you share which EC50 value was measured for CC(=O)N1C[C@H](C(N)=O)[C@@H](c2cccc(-c3nc(N4CC[C@@H]4C)nc4c3CCC4)c2)C1 (relative stereo) ?
output: 423

input: Could you share which EC50 value was measured for NC(=O)c1ccc(-c2nc(N3CCC3)nc3c2CCC3)cc1 ?
output: 4770

input: Could you share which EC50 value was measured for C[C@H]1CCN1c1nc2c(c(-c3cccc(C(=O)O)c3)n1)CCC2 ?
output: 611

input: Could you share which EC50 value was measured for Cc1ccc(-c2nc(N3C[C@@H](O)[C@@H]3C)nc3c2CCC3(F)F)cc1S(C)(=N)=O (some centres unmarked) ?
output: 17.6

input: Could you share which EC50 value was measured for C[C@H]1CCN1c1nc2c(c(-c3cccc(OC(F)F)c3)n1)CCC2 ?
output: 525

input: Could you share which EC50 value was measured for C[C@H]1CCN1c1nc2c(c(-c3cccc(CNC(=O)CO)c3)n1)CCC2 ?
output: 199

input: Could you share which EC50 value was measured for C[C@H]1[C@H](O)CN1c1nc2c(c(-c3ccc(C4(N)COC4)cc3)n1)CCC2 ?
output: 36.9

input: Could you share which EC50 value was measured for C[C@H]1CCN1c1nc2c(c(-c3ccns3)n1)CCC2 ?
output: 89.4

input: Could you share which EC50 value was measured for C[C@H]1[C@H](O)CN1c1nc(-c2ccc(C(N)=O)nc2)c2c(n1)C(F)(F)CC2 ?
output: 144

input: Could you share which EC50 value was measured for C[C@H]1CCN1c1nc2c(c(-c3ccc(C4(NS(C)(=O)=O)CCC4)cc3)n1)CCC2 ?
output: 1680

input: Could you share which EC50 value was measured for C[C@H]1[C@H](O)CN1c1nc(-c2cc3c(c(C(N)=O)c2)CCO3)c2c(n1)C(F)(F)CC2 ?
output: 52.2

input: Could you share which EC50 value was measured for C[C@H]1CCN1c1nc2c(c(-c3cc4c(=O)[nH]ccc4s3)n1)CCC2 ?
output: 19.7

---

# MEASURED ON: human KHK-A (Homo sapiens (Human), UniProt P50053)
# Sequence (P50053 other isoform, or with tags, fused parts or gaps): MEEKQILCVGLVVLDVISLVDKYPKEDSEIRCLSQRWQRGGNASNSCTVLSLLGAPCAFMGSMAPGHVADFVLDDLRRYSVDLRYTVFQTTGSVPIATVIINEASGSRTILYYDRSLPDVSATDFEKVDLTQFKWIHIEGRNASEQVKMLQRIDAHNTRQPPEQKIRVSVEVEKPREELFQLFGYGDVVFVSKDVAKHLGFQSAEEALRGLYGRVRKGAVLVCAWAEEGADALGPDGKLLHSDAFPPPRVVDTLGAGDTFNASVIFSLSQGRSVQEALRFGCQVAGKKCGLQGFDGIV
# EXPERIMENT NOTES: KHK Biochemical Assay (IC50), ADP-Glo, KHK-A
# CONDITION INFO: ADP-Glo; average of at least two separate assays
pIC50: −log10 of the molar value.
So basically: pIC50 at 7 or higher? That is condition met. Lower than 7? That is condition not met.

input: Check the entry C[C@H]1CCN1c1nc2c(c(-c3ccn(CCC(=O)O)n3)n1)CCC2 [Example 24] : does pIC50 equal or exceed 7?
output: condition not met

input: Check the entry COc1cc(S(=N)(=O)c2cccc(-c3nc(N4CC[C@@H]4C)nc4c3CCC4)c2)ccc1C#N (some centres unmarked) [Example 848] : does pIC50 equal or exceed 7?
output: condition not met

input: Check the entry C[C@H]1CCN1c1nc2c(c(-c3ccc(CN4CC(O)C4)cc3)n1)CCC2 [Example 365] : does pIC50 equal or exceed 7?
output: condition met

input: Check the entry C[C@H]1[C@H](F)CN1c1nc2c(c(-c3cccc(C4CC4C(=O)O)c3)n1)CCC2 (some centres unmarked) [Example 48] : does pIC50 equal or exceed 7?
output: condition met

input: Check the entry Cc1ncc(-c2nc(N3CC[C@@H]3C)nc3c2CCC3)s1 [Example 34] : does pIC50 equal or exceed 7?
output: condition met

input: Check the entry C[C@H]1CCN1c1nc2c(c(-c3ccc4c(c3)C[C@@H]3[C@H](C(N)=O)[C@H]43)n1)CCC2 (relative stereo) [Example 138] : does pIC50 equal or exceed 7?
output: condition not met
